Biological target: SARS-CoV-2 3CLpro (Severe acute respiratory syndrome coronavirus 2)
Test: biochemical
Format: biochemical
Details: sheet LOPAC_screen_w_protease; primary screen at 5 µM; replicate 1
Exercise: state measured Replicate_1 (LOPAC screen with protease) for each of the molecules provided.
Note: the reply should be a number with no unit written.

Field request: Replicate_1 (LOPAC screen with protease) | item: Cl.NC[C@@H]1O[C@H](C23CC4CC(CC(C4)C2)C3)Cc2c1ccc(O)c2O [A-77636 hydrochloride] 62.3885

Field request: Replicate_1 (LOPAC screen with protease) | item: C[Se]C[C@H](N)C(=O)O.Cl [Se-(methyl)selenocysteine hydrochloride] 13.6627

Field request: Replicate_1 (LOPAC screen with protease) | item: S=C(Nc1ccccc1)Nc1nccs1 6.341

Field request: Replicate_1 (LOPAC screen with protease) | item: Br.Oc1ccc(C2CNCc3sccc32)cc1O (centres unmarked) [SKF 89626, reference compound] 43.262

Field request: Replicate_1 (LOPAC screen with protease) | item: C[C@](N)(Cc1ccc(O)c(O)c1)C(=O)O 6.315

Field request: Replicate_1 (LOPAC screen with protease) | item: Br.Oc1cc2c(c(Cl)c1O)CCNCC2c1ccccc1 (racemic) [(±)-6-Chloro-PB hydrobromide] 64.3769

Field request: Replicate_1 (LOPAC screen with protease) | item: CNCCNS(=O)(=O)c1cccc2cnccc12.Cl.Cl [H-8 dihydrochloride] 9.7701

Field request: Replicate_1 (LOPAC screen with protease) | item: CC(=O)NCCc1ccc(O)c(O)c1.O [N-Acetyldopamine monohydrate] 83.9163

====

Target: SARS-CoV-2 3CLpro (Severe acute respiratory syndrome coronavirus 2)
Assay: biochemical
Type: biochemical
Settings: read-out: A) EC50 with Triton X-100
reported_endpoint: pEC50
Lab note: report pEC50 as minus log10 of the concentration in molar units, number only.

Field request: pEC50 | item: NC[C@@H]1O[C@H](C23CC4CC(CC(C4)C2)C3)Cc2c1ccc(O)c2O [A-77636] 5.42

====

Target: SARS-CoV-2 3CLpro (Severe acute respiratory syndrome coronavirus 2)
Experiment: biochemical
Type: biochemical
Details: LOPAC1280 primary screen with protease, 5 µM compound, replicate 2
reported_endpoint: Replicate_2 (LOPAC_screen_w_protease)
Note: the reply should be a number with no unit written.

Field request: Replicate_2 (LOPAC_screen_w_protease) | item: CCN(CC)CCNC(=O)c1ccc(NC(C)=O)cc1.Cl [N-Acetylprocainamide hydrochloride] 2.1421

Field request: Replicate_2 (LOPAC_screen_w_protease) | item: CCCn1c(=O)c2[nH]c(C3CCCC3)nc2n(CCC)c1=O -0.7999

Field request: Replicate_2 (LOPAC_screen_w_protease) | item: CC(C)NCC(O)c1ccc(O)c(O)c1.Cl (single isomer, unassigned; (-)) [(-)-Isoproterenol hydrochloride] 1.275

Field request: Replicate_2 (LOPAC_screen_w_protease) | item: Cl.c1ccc2nc(C3=NCCN3)ccc2c1 [BU224 hydrochloride] 1.8522

====

Target: UniProt P0DTD1
Test: biochemical
Type: biochemical
Conditions: 4 h, LOPAC1280 primary screen with protease, 5 µM compound, replicate 2; read-out: Replicate_2 (LOPAC_screen_w_protease)
Where a name gives a salt, the structure may show the parent alone.
reported_endpoint: inhibition at 5 µM (%)
Output spec: scalar in %, unitless text.

Field request: inhibition at 5 µM | item: N[C@@H]1CON=C1O [D-Cycloserine] 0.045

Field request: inhibition at 5 µM | item: NCCS(=O)O [Hypotaurine] -0.407

Field request: inhibition at 5 µM | item: CC(C)[N+]1(C)[C@@H]2CC[C@H]1C[C@@H](OC(=O)C(CO)c1ccccc1)C2 (stereo partly drawn) [Ipratropium bromide] 1.99

Field request: inhibition at 5 µM | item: O=c1[nH]c(=O)n([C@H]2C[C@H](O)[C@@H](CO)O2)cc1Br [5-Bromo-2'-deoxyuridine] 1.06

Field request: inhibition at 5 µM | item: CCC(=O)c1ccc2c(c1)N(CCCN(C)C)c1ccccc1S2 [Propionylpromazine hydrochloride] 0.621

Field request: inhibition at 5 µM | item: COc1ccc2c(c1OC)C(=O)OC2C1c2cc3c(cc2CCN1C)OCO3 (single isomer, unassigned; (+)) [(+)-Hydrastine] 0.711

Field request: inhibition at 5 µM | item: CC(C)C[C@H](NC(=O)[C@@H](O)[C@H](N)Cc1ccccc1)C(=O)O [Bestatin hydrochloride] 3.15

Field request: inhibition at 5 µM | item: OC[C@H]1O[C@@H](n2cnc3c(Nc4ccccc4)ncnc32)[C@H](O)[C@@H]1O [N6-Phenyladenosine] 0.0632

Field request: inhibition at 5 µM | item: C[N+](C)(C)CCOC(N)=O [Carbachol] 1.06

====

Molecular target: UniProtKB P0DTD1
Experiment: biochemical
Assay type: biochemical
Conditions: 4 h, sheet LOPAC_screen_w_protease; LOPAC1280 primary screen at 5 µM, with protease; mean of the two replicates; read-out: mean
Counter-ions that a name gives are not always drawn.
Exercise: state measured inhibition at 5 µM for each of the molecules provided.
Output spec: scalar in %, unitless text.

Field request: inhibition at 5 µM | item: C=C(C)[C@H]1Cc2c(ccc3c2O[C@@H]2COc4cc(OC)c(OC)cc4[C@@H]2C3=O)O1 0.71

Field request: inhibition at 5 µM | item: CC(C)CN(C)c1nc(N)c(C(=O)N=C(N)N)nc1Cl [5-(N-Methyl-N-isobutyl)amiloride] 0.449

Field request: inhibition at 5 µM | item: O=C(O)CCCCCCCC(=O)O 0.767

Field request: inhibition at 5 µM | item: CC1(C)NC(=O)N(c2ccc([N+](=O)[O-])c(C(F)(F)F)c2)C1=O [Nilutamide] 0.761

Field request: inhibition at 5 µM | item: CC(=O)C(C)=O 0.702

Field request: inhibition at 5 µM | item: N[C@@H](Cc1c[nH]c2ccccc12)C(=O)O 0.58

Field request: inhibition at 5 µM | item: CN(C)CCC=C1c2ccccc2CCc2ccccc21 [Amitriptyline hydrochloride] 0.72

Field request: inhibition at 5 µM | item: NC(=O)c1ccccc1 [Benzamide] 0.755

Field request: inhibition at 5 µM | item: COc1ccc(C(=O)NCc2cccnc2)cc1C(=O)NCc1cccnc1 [Picotamide] 0.551

Field request: inhibition at 5 µM | item: O=C(NCCNCC(O)COc1ccc(O)cc1)N1CCOCC1 (stereo not drawn) [Xamoterol hemifumarate] 0.551

Field request: inhibition at 5 µM | item: NC(N)=NCCCCN=C(N)N [Arcaine sulfate] 0.608

Field request: inhibition at 5 µM | item: CN1CCc2cccc(Cl)c2CC1 0.452

Field request: inhibition at 5 µM | item: Nc1nc(O)c2ncn(COC(CO)CO)c2n1 0.74

Field request: inhibition at 5 µM | item: CCOC(=O)N1CCC(=C2c3ccc(Cl)cc3CCc3cccnc32)CC1 0.729

Field request: inhibition at 5 µM | item: CN1C(=O)CCS(=O)(=O)C1c1ccc(Cl)cc1 (stereo not drawn) 0.463

Field request: inhibition at 5 µM | item: CC(=O)NCCc1c[nH]c2ccccc12 0.808

Field request: inhibition at 5 µM | item: NS(=O)(=O)Cc1noc2ccccc12 [Zonisamide sodium] 0.586

Field request: inhibition at 5 µM | item: O=C(O)c1cccnc1C(=O)O 0.58

Field request: inhibition at 5 µM | item: CNCCC(Oc1ccc(C(F)(F)F)cc1)c1ccccc1 (stereo not drawn) [Fluoxetine hydrochloride] 0.474

Field request: inhibition at 5 µM | item: O=C1NCN(c2ccccc2)C12CCN(CC1COc3ccccc3O1)CC2 (stereo not drawn) 0.522

Field request: inhibition at 5 µM | item: NCCc1c[nH]c2ccccc12 [Tryptamine hydrochloride] 0.461

Field request: inhibition at 5 µM | item: C/C=C(/C)C(=O)O[C@H]1C(C)=C2[C@H]([C@@H]1OC(=O)CCCCCCC)[C@@](C)(OC(C)=O)C[C@H](OC(=O)CCC)[C@@]1(O)[C@H]2OC(=O)[C@@]1(C)O 0.567

Field request: inhibition at 5 µM | item: CC(C)NCC(O)COc1cccc2[nH]ccc12 (stereo not drawn) 0.855

Field request: inhibition at 5 µM | item: O=C(O)CP(=O)(O)O 0.854

Field request: inhibition at 5 µM | item: CN(C)CCCN1c2ccccc2Sc2ccc(C(F)(F)F)cc21 [Triflupromazine hydrochloride] 0.692

Field request: inhibition at 5 µM | item: COc1ccc(Cl)cc1C(=O)NCCc1ccc(S(=O)(=O)NC(=O)NC2CCCCC2)cc1 [Glibenclamide] 0.733

Field request: inhibition at 5 µM | item: Cc1nc2ccccn2c(=O)c1CCN1CCC(C(=O)c2ccc(F)cc2)CC1 0.688

Field request: inhibition at 5 µM | item: CCc1cccc2c3c([nH]c12)C(CC)(CC(=O)O)OCC3 (stereo not drawn) 0.659

Field request: inhibition at 5 µM | item: CN/C(=N\c1ccc(C2=NNC(=O)CC2C)cc1)NC#N (stereo not drawn) 0.836

Field request: inhibition at 5 µM | item: N=C(N)NCCC[C@H](N)C(=O)O 0.787
